Below, each of the compounds is paired with its reported melting point value.

In [3]: df
Out[3]:
                                   compound       test_value
0  CCOc1ccc(F)cc1NC(=O)Nc1ccc(N2CCN(C(=O)Nc3ncccc3C)CC2)nc1    180 to 185 °C
1  Cc1cccc(Cl)c1NC(=O)N1CCN(c2ccc(NC(=O)NC3CCCCC3)cc2)CC1  > 260 °C (dec.)

According to the records, this compound COc1ccc(C)cc1NC(=O)Nc1ccc(N2CCN(C(=O)C(O)c3ccccc3Cl)CC2)nc1 (centres unmarked) displays melting point of 118 to 120 °C

Value of melting point reported for the compound "COc1cccc(NC(=O)Nc2ccc(N3CCN(C(=O)Nc4ccc(OCCO)cc4C(F)(F)F)CC3)cc2)c1" is 214 to 215 °C

What the record says about "COc1ccc(Cl)cc1NC(=O)Nc1ccc(N2CCN(C(=O)Nc3c(C)cccc3C)CC2)cc1" : melting point is 216 to 218 °C

Per the record, "Cc1cccnc1NC(=O)N1CCN(c2ccc(NC(=O)Nc3ccccc3F)cc2)CC1" has melting point of > 250 °C (dec.)

response.value for "O=C(Nc1ccc(N2CCN(C(=O)Nc3ccc(OCCO)cc3C(F)(F)F)CC2)nc1)Nc1ccccc1F" (field: melting point) = 193 to 194 °C

Lab book: melting point of COc1ccc(C)cc1NC(=O)Nc1ccc(N2CCN(C(=O)Nc3c(C)cccc3Cl)C(C)C2)cc1 (centres unmarked) noted as 161 to 163 °C
